B1: MNAT1 (parent)
chain: LEEALYEYQPLQIETYGPHVPELE

Variants of: B1
Assay Explanation: protein stability index of a GFP-peptide fusion (GPS, HEK-293T) (PSI 1-6); higher = more stable;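 also: lentivirally expressed fusions sorted by FACS into six bins by GFP to DsRed ratio, PSI derived from sequencing read proportions per bin multiplied by bin number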
Protocol Conditions: c terminus: a fixed tail appended
Provide the recorded protein stability index for the entries that follow.
# print the numeric value only

In plain terms, "LEEALYESQPLQIETYGPHVPELE" has a documented protein stability index of 5.53

So, "LEEALYEYQPLQIETYGPHVPELL" ? Its protein stability index was 2.19

So, "LEEALYEYQPLQIETLGPHVPELE" ? Its protein stability index was 4.15

Notebook: "LEEALYELQPLQIETYGPHVPELE" , protein stability index read as 4.75

The value of protein stability index measured for the variant "LEEALYEYQPHQIETYGPHVPELE" turned out to be 4.61

// protein stability index value for "LEEALYEYQPLGIETYGPHVPELE" : 2.75

"LEEALYEYQPLQIDTYGPHVPELE" has a reported protein stability index of 2.68

According to the records, this variant "LEEALYEYQPLQIETYGPHVPEIE" displays protein stability index of 2.53

protein stability index in this record for "LEEALYEYQELQIETYGPHVPELE" : 4.6

In plain terms, "LEEALYEYQPLQIETYGPHVPNLE" has a documented protein stability index of 2.31

Please fill in: protein stability index reported for "LEEALYEYVPLQIETYGPHVPELE" = 3.84
